A collection of molecules and their measured DC50
assayed system: UniProtKB Q9UGN5
measurement notes: Fluorescence polarization probe displacement assay, PARP-2
Assay type: binding
stated conditions: read-out: PARP-2 DC50; half maximal displacement concentration

>>> print(df.to_string())
                              smiles_record  experimental_value
0  NC(=O)c1cccc2c1C(=O)N(C1CCN(Cc3ccc(F)cc3F)CC1)C2             > 10 µM

IN: Please give the measured DC50 for this molecule: Cc1ncsc1CN1CCC(N2Cc3cccc(C(N)=O)c3C2=O)CC1
OUT: 6.5 µM

IN: Let us now turn to CCc1ccc(CN2CCC(N3Cc4cccc(C(N)=O)c4C3=O)CC2)cc1
OUT: > 10 µM

IN: Let us now turn to Cc1ccc(CN2CCC(N3Cc4cccc(C(N)=O)c4C3=O)CC2)cc1C
OUT: > 10 µM

IN: Let us now turn to Cc1c(CN2CCC(N3Cc4cccc(C(N)=O)c4C3=O)CC2)cnn1C
OUT: > 10 µM

* * *

assayed system: PARP-1 FL (Homo sapiens (Human))
measurement notes: Fluorescence polarization probe displacement assay, PARP-1
Type: binding
stated conditions: half maximal displacement concentration
measure name: DC50

Guide cases for DC50, answers given:
>>> df
                              smiles_record  measure_name  experimental_value
0  COC[C@H]1CC[C@@H](N2CCC(N3Cc4cccc(C(N)=O)c4C3=O)CC2)CC1          DC50            < 250 nM
1  NC(=O)c1cccc2c1C(=O)N(C1CCN(Cc3cccc4[nH]ccc34)CC1)C2          DC50            < 250 nM
2  NC(=O)c1cccc2c1C(=O)N(C1CCN(CC3CCN(Cc4ccccc4)CC3)CC1)C2          DC50              260 nM

IN: For the record Cc1ccc(CN2CCC(N3Cc4cccc(C(N)=O)c4C3=O)CC2)cc1C , what value of DC50 is listed for PARP-1 FL (Homo sapiens (Human))?
OUT: < 250 nM

* * *

measurement notes: Pharmacokinetics and oral bioavailability in the mouse
stated conditions: male, Balb Nu/Nu, plasma, iv, 10 mg/kg
measure name: Vd (L/kg)
Give the number; L/kg is assumed, so skip it.

Guide cases for Vd, answers given:
>>> print(df.to_string())
                              smiles_record  experimental_value
0  NC(=O)c1cccc2c1C(=O)N(C1CCN([C@H]3CC[C@@H](CO)CC3)CC1)C2                4.75
1  NC(=O)c1cccc2c1C(=O)N(C1CCN([C@H]3CC[C@H](CO)CC3)CC1)C2                5.95

Moving on to another compound below.
IN: Please give the measured Vd for this compound: CC(C)n1cc(CN2CCC(N3Cc4cccc(C(N)=O)c4C3=O)CC2)c2ccccc21
OUT: 2.78

* * *

A collection of compounds and their measured Kd
assayed system: PARP-1 FL (Homo sapiens (Human), UniProt P09874)
Sequence (P09874 whole entry): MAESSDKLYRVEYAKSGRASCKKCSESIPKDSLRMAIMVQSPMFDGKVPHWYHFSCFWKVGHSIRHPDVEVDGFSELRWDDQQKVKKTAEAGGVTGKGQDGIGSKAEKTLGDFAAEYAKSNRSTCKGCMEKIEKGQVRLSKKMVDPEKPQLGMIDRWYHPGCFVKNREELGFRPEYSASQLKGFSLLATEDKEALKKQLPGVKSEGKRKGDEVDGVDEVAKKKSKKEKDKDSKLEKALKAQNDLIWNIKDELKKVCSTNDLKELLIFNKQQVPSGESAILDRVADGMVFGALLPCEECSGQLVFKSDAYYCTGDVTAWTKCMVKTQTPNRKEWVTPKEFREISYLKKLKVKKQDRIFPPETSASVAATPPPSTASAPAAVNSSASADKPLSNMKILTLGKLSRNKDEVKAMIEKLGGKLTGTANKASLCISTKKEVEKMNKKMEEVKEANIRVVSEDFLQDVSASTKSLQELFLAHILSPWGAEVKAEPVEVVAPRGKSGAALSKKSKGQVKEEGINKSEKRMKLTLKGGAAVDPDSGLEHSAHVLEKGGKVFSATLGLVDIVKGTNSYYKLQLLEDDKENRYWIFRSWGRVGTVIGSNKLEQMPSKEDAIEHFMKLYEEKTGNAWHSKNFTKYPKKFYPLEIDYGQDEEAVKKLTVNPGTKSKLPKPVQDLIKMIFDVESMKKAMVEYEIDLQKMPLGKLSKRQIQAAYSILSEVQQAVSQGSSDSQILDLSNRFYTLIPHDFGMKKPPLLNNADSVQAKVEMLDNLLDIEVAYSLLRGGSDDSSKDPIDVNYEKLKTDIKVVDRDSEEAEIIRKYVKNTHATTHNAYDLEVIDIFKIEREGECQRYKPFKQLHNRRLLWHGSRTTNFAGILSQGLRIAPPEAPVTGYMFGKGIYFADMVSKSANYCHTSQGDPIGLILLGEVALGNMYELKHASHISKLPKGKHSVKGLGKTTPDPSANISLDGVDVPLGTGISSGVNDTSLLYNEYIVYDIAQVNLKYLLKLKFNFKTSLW
measurement notes: Fluorescence polarization probe displacement assay, PARP-1
Type: binding
stated conditions: compound P1 as the probe, 250 nM PARP-1

Guide cases for Kd, answers given:
>>> print(df.to_string())
                              smiles_record                            assayed_system  experimental_value
0  COC[C@H]1CC[C@@H](N2CCC(N3Cc4cccc(C(N)=O)c4C3=O)CC2)CC1  PARP-1 FL (Homo sapiens (Human), UniProt P09874)               40 nM
1  Cc1ncsc1CN1CCC(N2Cc3cccc(C(N)=O)c3C2=O)CC1  PARP-1 FL (Homo sapiens (Human), UniProt P09874)             < 30 nM
2  NC(=O)c1cccc2c1C(=O)N(C1CCN(Cc3cccc(Cl)c3)CC1)C2  PARP-1 FL (Homo sapiens (Human), UniProt P09874)               33 nM
3  NC(=O)c1cccc2c1C(=O)N(C1CCN(Cc3ccc(F)cc3F)CC1)C2  PARP-1 FL (Homo sapiens (Human), UniProt P09874)             < 30 nM
4  NC(=O)c1cccc2c1C(=O)N(C1CCN(Cc3ccc4ccccc4n3)CC1)C2  PARP-1 FL (Homo sapiens (Human), UniProt P09874)             < 30 nM

IN: For the record CC(C)c1ccc(CN2CCC(N3Cc4cccc(C(N)=O)c4C3=O)CC2)cc1 , what value of Kd is listed for PARP-1 FL (Homo sapiens (Human), UniProt P09874)?
OUT: < 30 nM

IN: Let us now turn to NC(=O)c1cccc2c1C(=O)N(C1CCN(Cc3cccc(F)c3)CC1)C2
OUT: < 30 nM

IN: Let us now turn to NC(=O)c1cccc2c1C(=O)N(C1CCN(C3CCC4(CC3)OCCO4)CC1)C2
OUT: 130 nM

IN: Let us now turn to COc1cccc(CN2CCC(N3Cc4cccc(C(N)=O)c4C3=O)CC2)c1
OUT: < 30 nM

* * *

assayed system: PARP-2 FL (Homo sapiens (Human), UniProt Q9UGN5)
Sequence (Q9UGN5 whole entry): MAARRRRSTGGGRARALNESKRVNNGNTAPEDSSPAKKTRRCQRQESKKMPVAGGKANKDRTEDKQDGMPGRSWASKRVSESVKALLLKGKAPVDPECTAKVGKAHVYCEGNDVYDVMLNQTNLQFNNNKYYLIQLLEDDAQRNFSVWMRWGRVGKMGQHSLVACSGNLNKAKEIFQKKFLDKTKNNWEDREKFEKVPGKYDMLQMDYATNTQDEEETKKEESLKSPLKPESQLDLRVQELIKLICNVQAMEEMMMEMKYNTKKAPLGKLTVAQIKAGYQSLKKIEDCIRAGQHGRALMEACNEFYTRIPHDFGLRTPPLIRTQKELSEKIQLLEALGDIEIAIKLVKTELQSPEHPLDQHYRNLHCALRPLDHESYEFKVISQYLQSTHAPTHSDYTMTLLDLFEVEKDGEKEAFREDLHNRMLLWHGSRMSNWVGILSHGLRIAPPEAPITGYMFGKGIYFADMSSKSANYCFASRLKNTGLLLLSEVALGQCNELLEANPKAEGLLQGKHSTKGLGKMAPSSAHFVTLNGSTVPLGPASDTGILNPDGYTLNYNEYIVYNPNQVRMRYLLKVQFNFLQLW
measurement notes: Fluorescence polarization probe displacement assay, PARP-2
Type: binding
stated conditions: read-out: PARP-2 DC50; half maximal displacement concentration
A collection of compounds and their measured DC50

>>> df
                                   compound                            assayed_system  measure_name  experimental_value
0  NC(=O)c1cc(F)cc2c1C(=O)N(C1CCN(C3CCC(=O)CC3)CC1)C2 [Compound 103]  PARP-2 FL (Homo sapiens (Human), UniProt Q9UGN5)          DC50             3.77 µM
1  CC(C)Oc1ccccc1CN1CCC(N2Cc3cccc(C(N)=O)c3C2=O)CC1 [Compound 41]  PARP-2 FL (Homo sapiens (Human), UniProt Q9UGN5)          DC50             > 10 µM
2  CCCOc1ccc(CN2CCC(N3Cc4cccc(C(N)=O)c4C3=O)CC2)cc1 [Compound 37]  PARP-2 FL (Homo sapiens (Human), UniProt Q9UGN5)          DC50             > 10 µM
3  CC(C)c1ccc(CN2CCC(N3Cc4cccc(C(N)=O)c4C3=O)CC2)cc1 [Compound 38]  PARP-2 FL (Homo sapiens (Human), UniProt Q9UGN5)          DC50             > 10 µM
4  NC(=O)c1ccc(F)c2c1C(=O)N(C1CCN(C3CCC(F)(F)CC3)CC1)C2 [Compound 101]  PARP-2 FL (Homo sapiens (Human), UniProt Q9UGN5)          DC50             > 10 µM

IN: For the record NC(=O)c1cccc2c1C(=O)N(C1CCN(Cc3ccccc3F)CC1)C2 [Compound 12] , what value of DC50 is listed for PARP-2 FL (Homo sapiens (Human), UniProt Q9UGN5)?
OUT: > 10 µM

* * *

assayed system: PARP-1 FL (Homo sapiens (Human), UniProt P09874)
measurement notes: Fluorescence polarization probe displacement assay, PARP-1
Type: binding
stated conditions: half maximal displacement concentration
A collection of compounds and their measured DC50

Guide cases for DC50, answers given:
In [3]: df
Out[3]:
                                   compound  measure_name  experimental_value
0  NC(=O)c1cccc2c1C(=O)N(C1CCN(Cc3cccc(Cl)c3)CC1)C2 [Compound 42]          DC50            < 250 nM
1  Cc1c(CN2CCC(N3Cc4cccc(C(N)=O)c4C3=O)CC2)cnn1C [Compound 34]          DC50              340 nM
2  CCCOc1ccc(CN2CCC(N3Cc4cccc(C(N)=O)c4C3=O)CC2)cc1 [Compound 37]          DC50            < 250 nM

Moving on to another compound below.
IN: Please give the measured DC50 for this compound: NC(=O)c1cccc2c1C(=O)N(CCCN1CCN(c3cccc(Cl)c3)CC1)C2 [Compound 46]
OUT: < 250 nM
